assay: Half life in Sprague-Dawley rat brain at 20 mg/kg, po; assay type: ADME, organism-based; parameters: dose 20 mg/kg, route oral
MEASURE_NAME: half-life (min)
Response body: numeric value in min, unit text excluded.

# half-life lookup, item C[C@@H](NC(=O)[C@@H](CC(=O)N1CCC(N2CCCCC2)CC1)N1C(=O)[C@@H](N2C(=O)OC[C@@H]2c2ccccc2)[C@H]1/C=C/c1ccccc1)c1ccccc1
360

Could you do the same for CN(Cc1cccc(C(F)(F)F)c1)C(=O)[C@@H](CC(=O)N1CCC(N2CCCCC2)CC1)N1C(=O)[C@@H](N2C(=O)OC[C@@H]2c2ccccc2)[C@H]1/C=C/c1ccccc1 , please?
360
